Assay: RAM pathway blockade in budding yeast – dse1pr::URA3 reporter, 5-FOA selection, pilot screen (AID 869);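 note: RAM network block rescues cells from 5-FOA so hits raise OD615 growth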
Conditions: S. cerevisiae dse1pr::URA3 5-FOA growth, OD615, 2 d; at 10 µM; stronger effect = higher value; strain carries analog-sensitive mutant Cbk1 kinase
Lab note: anything with inhibition at or over 1% counts as met; the rest go in not met.

Kindly determine if inhibition recorded for CCSc1nnc(NC(=O)c2cc3c(s2)CCCC3)s1 is above or exactly 1%. met

Item O=C(C1CCCN(S(=O)(=O)c2cccnc2)C1)N1CCn2c1nc1ccccc12 (stereo unspecified) with inhibition of 1% or above? not met

In plain terms: is recorded inhibition at least 1% for Cc1cccc(OCc2nc(C#N)c(NCCN(C)C)o2)c1 ? not met

Could you verify whether the entry O=C(CCCN1C(=O)CSc2ncccc21)N1CCN(Cc2ccccc2)CC1 shows inhibition of no less than 1%? met

I'd appreciate it if you could say whether Cc1nc2ccc(Br)cn2c1NC(C)(C)C has inhibition at least equal to 1%. met

Please indicate if the recorded inhibition for COc1cccc(-c2cc(C(F)(F)F)nc(NCc3ccco3)n2)c1 meets or exceeds 1%. met

Quick check: does Cc1ccc(C(=O)NC(Cc2c[nH]c3ccccc23)C(=O)O)o1 (stereo unspecified) have inhibition greater than or equal to 1%? met

# check: inhibition of COC(=O)c1ccc(-c2nc(-c3ccc(Br)o3)no2)cc1 is greater than or equal to 1% met

Please tell me: is the compound CN(Cc1ccccc1)S(=O)(=O)c1ccc(S(=O)(=O)N2CCN(CCC#N)CC2)cc1 at or over 1% in terms of inhibition? not met

Tell me whether inhibition is at least 1% here: Cc1ccc(C(c2sc3ncnn3c2O)N2CC(C)CC(C)C2)cc1 (stereo unspecified) not met
